System: Mycobacterium tuberculosis
measurement_notes: Growth inhibition of Mycobacterium bovis BCG ATCC 35743 at dormant stage at 25 ug/ml measured after 12 days by nitrate reductase dye based two fold dilution method relative to control
Assay type: functional
study_conditions: BCG str. ATCC 35743, 288 h, read-out: GI
readout: inhibition of growth at 25 µg/mL (%)

COc1ccc2nc(Cl)c(/C=C3\SC(=S)NC3=O)cc2c1 81.6
O=C1NC(=S)S/C1=C\c1cc2cc(F)ccc2nc1Cl 100
O=C(O)CN1C(=O)/C(=C/c2cc3cc(F)ccc3nc2Cl)SC1=S 99.8
O=C1NC(=S)S/C1=C\c1cc2cc(Cl)ccc2nc1Cl 100
COc1ccc2cc(/C=C3\SC(=S)NC3=O)c(Cl)nc2c1 99.8
Cc1cccc2cc(/C=C3\SC(=S)NC3=O)c(Cl)nc12 101
CCOc1ccc2nc(Cl)c(/C=C3\SC(=S)NC3=O)cc2c1 100

* * *

measurement_notes: Cytotoxicity against […]-differentiated human THP1 cells assessed as growth inhibition at 100 ug/ml measured after 48 hrs by MTT assay relative to control
Assay type: toxicity, cell-based, THP-1
study_conditions: read-out: GI
Listed here: items and their measured inhibition at 48 h, 100 ug/ml.
readout: inhibition at 48 h, 100 ug/ml (%)

O=C1NC(=S)S/C1=C\c1cc2cc(F)ccc2nc1Cl 19.2
CCOc1ccc2nc(Cl)c(/C=C3\SC(=S)NC3=O)cc2c1 35.1
O=C1NC(=S)S/C1=C\c1cc2cc(Cl)ccc2nc1Cl 29.1
COc1ccc2nc(Cl)c(/C=C3\SC(=S)NC3=O)cc2c1 30.2
Cc1cccc2cc(/C=C3\SC(=S)N(CC(=O)O)C3=O)c(Cl)nc12 25
Cc1cccc2cc(/C=C3\SC(=S)NC3=O)c(Cl)nc12 2.58
COc1ccc2cc(/C=C3\SC(=S)NC3=O)c(Cl)nc2c1 31.3
O=C(O)CN1C(=O)/C(=C/c2cc3cc(F)ccc3nc2Cl)SC1=S 14.5

* * *

Listed here: items and their measured selectivity ratio.
measurement_notes: Selectivity index, ratio of GI50 for […]-differentiated human THP1 cells to MIC for Mycobacterium tuberculosis H37Ra ATCC 25177 at dormant stage
Format: toxicity, cell-based, THP-1
study_conditions: read-out: Selectivity Index

molecule	selectivity ratio
CCOc1ccc2nc(Cl)c(/C=C3\SC(=S)NC3=O)cc2c1	28.6
Cc1cccc2cc(/C=C3\SC(=S)N(CC(=O)O)C3=O)c(Cl)nc12	5
Cc1cccc2cc(/C=C3\SC(=S)NC3=O)c(Cl)nc12	7.8
CO[C@H]1/C=C/O[C@@]2(C)Oc3c(C)c(O)c4c(O)c(c(/C=N/N5CCN(C)CC5)c(O)c4c3C2=O)NC(=O)/C(C)=C\C=C\[C@H](C)[C@H](O)[C@@H](C)[C@@H](O)[C@@H](C)[C@H](OC(C)=O)[C@@H]1C [RIFAMPIN]	2500
O=C1NC(=S)S/C1=C\c1cc2cc(F)ccc2nc1Cl	5.6
COc1ccc2nc(Cl)c(/C=C3\SC(=S)NC3=O)cc2c1	20.8
O=C1NC(=S)S/C1=C\c1cc2cc(Cl)ccc2nc1Cl	15.6

* * *

measurement_notes: Cytotoxicity against human HeLa cells at 100 ug/ml assessed as growth inhibition measured after 48 hrs by MTT assay relative to control
Assay type: toxicity, cell-based
study_conditions: read-out: GI
readout: inhibition at 48 h, 100 ug/ml (%)

O=C(O)CN1C(=O)/C(=C/c2cc3cc(F)ccc3nc2Cl)SC1=S 9.01
COc1ccc2cc(/C=C3\SC(=S)NC3=O)c(Cl)nc2c1 30.1
COc1ccc2nc(Cl)c(/C=C3\SC(=S)NC3=O)cc2c1 31.3
O=C1NC(=S)S/C1=C\c1cc2cc(Cl)ccc2nc1Cl 45.5
Cc1cccc2cc(/C=C3\SC(=S)NC3=O)c(Cl)nc12 32.1
CCOc1ccc2nc(Cl)c(/C=C3\SC(=S)NC3=O)cc2c1 30.2
Cc1cccc2cc(/C=C3\SC(=S)N(CC(=O)O)C3=O)c(Cl)nc12 3.1
O=C1NC(=S)S/C1=C\c1cc2cc(F)ccc2nc1Cl 20

* * *

Tested on: Pseudomonas fluorescens
measurement_notes: Antibacterial activity against Pseudomonas fluorescens NCIM 2036 measured after 8 hrs
Assay type: functional
study_conditions: NCIM 2036, 8 h
readout: MIC

COc1ccc2cc(/C=C3\SC(=S)N(CC(=O)O)C3=O)c(Cl)nc2c1 > 30 µg/mL
O=C(O)CCN1C(=O)/C(=C/c2cc3ccccc3nc2Cl)SC1=S > 30 µg/mL
O=C(O)CCN1C(=O)/C(=C/c2cc3cc(F)ccc3nc2Cl)SC1=S > 30 µg/mL

* * *

System: Pseudomonas fluorescens
measurement_notes: Growth inhibition of Pseudomonas fluorescens NCIM 2036 at 3 ug/ml measured after 8 hrs relative to control
Type: functional
study_conditions: NCIM 2036, 8 h, read-out: GI
readout: inhibition of growth at 3 µg/mL (%)

O=C(O)CN1C(=O)/C(=C/c2cc3cc(Cl)ccc3nc2Cl)SC1=S -72.5
O=C1NC(=S)S/C1=C\c1cc2cc(Cl)ccc2nc1Cl 95.6
O=C(O)CN1C(=O)/C(=C/c2cc3ccccc3nc2Cl)SC1=S -16.1
Cc1cccc2cc(/C=C3\SC(=S)N(CCC(=O)O)C3=O)c(Cl)nc12 4.57
CCOc1ccc2nc(Cl)c(/C=C3\SC(=S)N(CCC(=O)O)C3=O)cc2c1 -85
O=C(O)CN1C(=O)/C(=C/c2cc3cc(F)ccc3nc2Cl)SC1=S 6.76
O=C1NC(=S)S/C1=C\c1cc2cc(F)ccc2nc1Cl 29.3
CCOc1ccc2nc(Cl)c(/C=C3\SC(=S)N(CC(=O)O)C3=O)cc2c1 -5.49
O=C(O)CCN1C(=O)/C(=C/c2cc3cc(F)ccc3nc2Cl)SC1=S 9.73
COc1ccc2nc(Cl)c(/C=C3\SC(=S)N(CC(=O)O)C3=O)cc2c1 -4.12
Cc1ccc2cc(/C=C3\SC(=S)N(CC(=O)O)C3=O)c(Cl)nc2c1 -11.5
Cc1ccc2nc(Cl)c(/C=C3\SC(=S)NC3=O)cc2c1 23.9
COc1ccc2nc(Cl)c(/C=C3\SC(=S)NC3=O)cc2c1 76.2
CCOc1ccc2nc(Cl)c(/C=C3\SC(=S)NC3=O)cc2c1 50.2
Cc1cccc2cc(/C=C3\SC(=S)N(CC(=O)O)C3=O)c(Cl)nc12 11.2
O=C(O)CCN1C(=O)/C(=C/c2cc3ccccc3nc2Cl)SC1=S -48
O=C1NC(=S)S/C1=C\c1cc2ccccc2nc1Cl -17.5

* * *

measurement_notes: Cytotoxicity against human PANC1 cells assessed as growth inhibition at 100 ug/ml measured after 48 hrs by MTT assay relative to control
Format: toxicity, cell-based, PANC-1
study_conditions: read-out: GI
Listed here: items and their measured inhibition at 48 h, 100 ug/ml.
readout: inhibition at 48 h, 100 ug/ml (%)

COc1ccc2nc(Cl)c(/C=C3\SC(=S)NC3=O)cc2c1 24.9
O=C1NC(=S)S/C1=C\c1cc2cc(Cl)ccc2nc1Cl 25.2
O=C1NC(=S)S/C1=C\c1cc2cc(F)ccc2nc1Cl 37.5
CCOc1ccc2nc(Cl)c(/C=C3\SC(=S)NC3=O)cc2c1 30.1
Cc1cccc2cc(/C=C3\SC(=S)N(CC(=O)O)C3=O)c(Cl)nc12 5.9
Cc1cccc2cc(/C=C3\SC(=S)NC3=O)c(Cl)nc12 30.9
O=C(O)CN1C(=O)/C(=C/c2cc3cc(F)ccc3nc2Cl)SC1=S 20.8
COc1ccc2cc(/C=C3\SC(=S)NC3=O)c(Cl)nc2c1 29.8

* * *

measurement_notes: Selectivity index, ratio of GI50 for human PANC1 cells to MIC for Mycobacterium tuberculosis H37Ra ATCC 25177 at dormant stage
Assay type: toxicity, cell-based, PANC-1
study_conditions: read-out: Selectivity Index
Rule: selectivity ratio below 20 gives YES, anything at or above gives NO.

Cc1cccc2cc(/C=C3\SC(=S)NC3=O)c(Cl)nc12 YES
COc1ccc2nc(Cl)c(/C=C3\SC(=S)NC3=O)cc2c1 NO
O=C1NC(=S)S/C1=C\c1cc2cc(F)ccc2nc1Cl YES
CO[C@H]1/C=C/O[C@@]2(C)Oc3c(C)c(O)c4c(O)c(c(/C=N/N5CCN(C)CC5)c(O)c4c3C2=O)NC(=O)/C(C)=C\C=C\[C@H](C)[C@H](O)[C@@H](C)[C@@H](O)[C@@H](C)[C@H](OC(C)=O)[C@@H]1C NO
CCOc1ccc2nc(Cl)c(/C=C3\SC(=S)NC3=O)cc2c1 NO
Cc1cccc2cc(/C=C3\SC(=S)N(CC(=O)O)C3=O)c(Cl)nc12 YES
O=C1NC(=S)S/C1=C\c1cc2cc(Cl)ccc2nc1Cl YES
